- study-system: T1, MUC1 peptide (15 aa+cystein, APDTRPAPGSTAPPAC) (human)
- T1 construct: If the listing entry has only 15 residues, a C-terminal Cys must be added; Immobilized on the SPR chip; also called synthetic MUC1 peptide
- T1 peptide: APDTRPAPGSTAPPAC
- test-description: SPR, scFv 2-200 nM over immobilized MUC1 peptide, Chip 1 (47 RU)
Each item that follows carries a reported log10 koff.
Could you please treat all values as log10 of koff in s⁻¹?

Previously resolved entries follow.
HT220-M-G8 scFv (scFv, scFv as VH-truncated CH1-linker-VL-truncated CL, made in the E. coli periplasm and purified by its His-tag; not shown: C-terminal His-tag used for purification and detection) scFv: QMQLVQSGAEVMKPGASVKVSCKASGYSFTGHYMHWVRHAPGQGLEWMGWIDPVTGSTKYAQNFQGWVTMTRDTSISTAYMELSRLRSDDTAMYYCAREVTGDRGQFDKWGQGTLVTVASASTKGPSVKLEEGEFSEARVQSVLTQPPSVSVAPGKTARITCGGNNIGSKSVHWYQQKPGQAPVLVIYYGSDRPSGIPERFSGSNTGNMATLTISRVEAGDEADYYCQVWDSSSDWVFGGGTKLTVLGQPKAAPSVTLFPPS    -3.66
HT186-B7 scFv (scFv, scFv as VH-truncated CH1-linker-VL-truncated CL, made in the E. coli periplasm and purified by its His-tag; not shown: C-terminal His-tag used for purification and detection) scFv: QMQLVQSGAEVKKPGASVKVSCKASGYTFTGHYMHWVRQAPGQGLEWMGWIDPVTGGTKYAQNFQGWVTMTRDTSIRTAYMELSRLRSDDTAMYYCAREVTGDRGQFDKWGQGTLVTVASASTKGPSVKLEEGEFSEARVQSVLTQPPSVSVAPGKTARITCGGNNIGSKSVHWYQQKPGQAPALVIYYGSYRPSGIPERFSGSNYGNTATLTIRRVEAGDEADYYCQVWDSSSDWVFGGGTKLTVLGQPKAAPSVTLFPPS    -4.34
HT186-D11 scFv (scFv, scFv as VH-truncated CH1-linker-VL-truncated CL, made in the E. coli periplasm and purified by its His-tag; not shown: C-terminal His-tag used for purification and detection) scFv: QMQLVQSEAELKKPGASVKVSCKASGYSFTGHYMHWVRQAPGQGLEWMGWIDPVTGGTKYAQNFQGWVTMTRDTSIRTAYLELSRLRSDDTAMYYCAREVTGDRGQFDKWGQGTLVTVASSSTKGPSVKLEEGEFSEARVQSVLTQPPSVSVAPGKTARITCGGNNIGSKSVHWYQQKPGQAPALVIYYGSNRPSGIPERFSGSNSGNTATLTISRVEAGDEADYYCQVWDSSSDWVFGGGTKLTVLGQPKAAPSVTLFPSS    -4.68
HT220-M-D1 scFv (scFv, scFv as VH-truncated CH1-linker-VL-truncated CL, made in the E. coli periplasm and purified by its His-tag; not shown: C-terminal His-tag used for purification and detection) scFv: QMLLVQSGAEAKKPGASVKVSCKASGYTFTGHYMHWVRQAPGQGLEWMGWIDPVTGGTKYAQNFQGWVTMTRDTSIRTAYMELSRLRPDDTAMYYCAREVTGDRGQFDKWGQGTLVTVASASTKGPSVKLEEGEFSEARVQSVLTQPPSVSVVPGKTARIICGGNNIGSKSVHWYQQKPGQAPVLVIYNNSDRPSGIPERFSGSNSGNMATLTISRVEAGDESDYYCQVWDSSSDWVFGGGTRLTILGQSKAAPSVTLFPPS    -3.96
HT200-3A-C1 scFv (scFv, scFv as VH-truncated CH1-linker-VL-truncated CL, made in the E. coli periplasm and purified by its His-tag; not shown: C-terminal His-tag used for purification and detection) scFv: QMQLVQSGAEVKKPGASVKVSCKASGYTFTGHYMHWVRQAPGQGLEWMGWIDPVTGGTKYAQNFQGWVTMTRDTSIRTAYMELSRLRSDDTAMYYCAREVTGDRGQFDKWGQGTLVTVASASTKGPSAKLEEGEFSEARVQSVLTQPPSVSMAPGETARITCGGNNIGSKSVHWYQQKPGQAPVLVIYNDSDRPSGIPERFSGSNSGKTATLTISRVEAGDEADYYCQVWDSSIDWVFGGGTKLTVLGQPKAAPSVTLFPPS    -4.00

API: the following record is the query input.
binder HT186-G2 scFv (scFv, scFv as VH-truncated CH1-linker-VL-truncated CL, made in the E. coli periplasm and purified by its His-tag; not shown: C-terminal His-tag used for purification and detection) scFv: RMQLVQSGAEVKKPGASVKLSCKASGYTFAGHYMHWVRQAPGRGLEWMGWIDPVTGGTKYAQNFQGWVTMTRDTSIRTAYMELSRLRSDDTAMYYCAREVTGDRGQFDKWGQGTLVTVASASTKGPSVKLEEGKFLEAHVQSVLTQPPSVSVAPGKTARITCGGNNIGSKSVHWYQQKPGQAPVLVIYYGSDRSSGIPERFSGSNSGNTATLTISRVEAGDEADYYCQVWDSSSDWVFGGGTKLTVLGQPKAAPSVTLFPPS , log10 koff observed: -4.14
